Recorded values, source ChEMBL document CHEMBL5678801.

Biological target: MAP kinase-interacting serine/threonine-protein kinase 2 (Homo sapiens)
Sequence (Q9HBH9 whole entry): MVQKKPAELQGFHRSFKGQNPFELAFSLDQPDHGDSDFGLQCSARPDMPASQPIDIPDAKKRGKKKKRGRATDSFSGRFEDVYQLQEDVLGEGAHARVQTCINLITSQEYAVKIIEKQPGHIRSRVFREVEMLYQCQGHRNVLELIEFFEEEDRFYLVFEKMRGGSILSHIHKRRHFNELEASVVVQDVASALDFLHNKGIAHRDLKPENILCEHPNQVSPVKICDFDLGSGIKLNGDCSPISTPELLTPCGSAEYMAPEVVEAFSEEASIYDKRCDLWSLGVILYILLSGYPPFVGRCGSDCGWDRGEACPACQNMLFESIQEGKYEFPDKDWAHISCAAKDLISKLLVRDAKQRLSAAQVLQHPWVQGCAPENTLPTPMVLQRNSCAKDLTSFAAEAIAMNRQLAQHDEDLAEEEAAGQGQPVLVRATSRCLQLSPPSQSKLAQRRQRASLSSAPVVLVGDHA
Experiment: Inhibition of recombinant MNK2 (unknown origin) using KKKALSRQLSVAA as substrate incubated for 1 hr followed by substrate addition in presence of ATP
REPORTED_ENDPOINT: IC50 (nM)
Give bare numbers, in nM.

Task: Item under review: Cc1ccc(-c2ccc3c(ccc4sc5c(c43)NC[C@@H](C)NC5=O)n2)cn1 . Reported IC50?
Result: 148

###

Assay: Inhibition of MK2 activity in LPS induced human Whole blood cell preincubated with compound for 1 hr followed by LPS induction and measured after 30 mins by Dissociation enhanced lanthanide fluoro-immuno assay
Format: functional, cell-based
REPORTED_ENDPOINT: IC50 (nM)
One number for each entry, in nM.

Task: Could you tell me which IC50 is on file for Cc1ccc(-c2ccc3c(ccc4sc5c(c43)NC[C@@H](C)NC5=O)n2)cn1 ?
Result: 1600
